biological target: 5'-AMP-activated protein kinase subunit beta-1 (Homo sapiens) (UniProt Q9Y478); assay: Inhibition of AMPKbeta1 at 10 uM by colorimetric analysis
Sequence (Q9Y478 whole entry): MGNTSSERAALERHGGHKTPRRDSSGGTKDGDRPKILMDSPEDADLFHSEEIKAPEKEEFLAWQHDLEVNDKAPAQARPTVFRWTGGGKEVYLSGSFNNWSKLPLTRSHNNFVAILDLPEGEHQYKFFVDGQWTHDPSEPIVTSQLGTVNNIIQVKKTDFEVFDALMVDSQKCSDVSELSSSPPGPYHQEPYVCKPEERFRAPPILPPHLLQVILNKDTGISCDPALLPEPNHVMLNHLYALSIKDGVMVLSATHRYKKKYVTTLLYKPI
The source made the active and inactive calls. The calls are words filed in the database; no cut-off is given here.
Quantity Kind: inhibition

>>> reported_measurement("Clc1ccc(-n2nncc2-c2ccncc2)cc1")
"Active"
>>> reported_measurement("Clc1cccc(-n2nncc2-c2ccncc2)c1")
"Active"
>>> reported_measurement("Clc1cccc(-n2cc(-c3ccncc3)nn2)c1")
"Active"
>>> reported_measurement("Clc1ccc(-n2cc(-c3ccncc3)nn2)cc1")
"Active"

----------
target: Tyrosine-protein kinase Lck (Homo sapiens) (UniProt P06239); experiment: Inhibition of LCK at 10 uM by colorimetric analysis
Sequence (P06239 2-509 limits assumed): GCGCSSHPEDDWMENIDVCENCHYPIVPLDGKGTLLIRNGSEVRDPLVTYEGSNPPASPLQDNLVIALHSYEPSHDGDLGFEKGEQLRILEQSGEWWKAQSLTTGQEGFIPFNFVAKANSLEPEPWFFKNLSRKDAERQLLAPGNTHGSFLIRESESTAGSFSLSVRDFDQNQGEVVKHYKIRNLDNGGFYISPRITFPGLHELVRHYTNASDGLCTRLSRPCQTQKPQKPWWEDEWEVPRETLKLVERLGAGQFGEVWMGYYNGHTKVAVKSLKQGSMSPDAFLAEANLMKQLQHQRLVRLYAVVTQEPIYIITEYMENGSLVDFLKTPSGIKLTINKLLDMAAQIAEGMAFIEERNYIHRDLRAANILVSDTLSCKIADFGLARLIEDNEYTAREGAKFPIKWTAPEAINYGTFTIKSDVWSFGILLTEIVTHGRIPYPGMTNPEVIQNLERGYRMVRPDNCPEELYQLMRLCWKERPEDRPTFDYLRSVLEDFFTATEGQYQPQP
Activity calls are given as the source filed them. The rule behind the calls is not given here.
Quantity Kind: inhibition

>>> reported_measurement("Clc1ccc(-n2cc(-c3ccncc3)nn2)cc1")
"inactive"
>>> reported_measurement("Clc1cccc(-n2cc(-c3ccncc3)nn2)c1")
"inactive"
>>> reported_measurement("Clc1ccc(-n2nncc2-c2ccncc2)cc1")
"inactive"
>>> reported_measurement("Clc1cccc(-n2nncc2-c2ccncc2)c1")
"inactive"
